Target: human recombinant AT2 receptor (Homo sapiens)
Sequence (P50052 whole entry): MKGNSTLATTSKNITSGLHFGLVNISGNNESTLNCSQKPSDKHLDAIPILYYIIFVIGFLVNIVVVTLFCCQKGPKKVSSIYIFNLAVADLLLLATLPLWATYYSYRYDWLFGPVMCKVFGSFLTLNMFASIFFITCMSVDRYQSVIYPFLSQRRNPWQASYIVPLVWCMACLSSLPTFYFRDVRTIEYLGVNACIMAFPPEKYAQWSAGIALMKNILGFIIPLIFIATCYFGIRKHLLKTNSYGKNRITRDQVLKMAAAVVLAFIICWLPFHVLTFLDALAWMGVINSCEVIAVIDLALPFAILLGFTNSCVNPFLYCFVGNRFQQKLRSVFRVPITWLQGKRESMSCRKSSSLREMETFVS
Test: Binding to AT2 receptor, radiometric scintillation assay (Eurofins ITEM26)
Settings: seven-point dose-response curve, ligand 125I CGP 42112A; * rows = mean of runs
readout name: Ki (nM)

[I] CC(C)Cc1cc(-c2ccc(Cn3ccnc3C(C)C)c(F)c2)c(S(=O)(=O)Nc2ncccn2)s1
[II] Cc1nccn1Cc1ccc(-c2cc(CC(C)C)ccc2S(=O)(=O)Nc2ncccn2)cc1
[III] CC(C)Cc1ccc(S(=O)(=O)Nc2nccs2)c(-c2ccc(Cn3ccnc3C(C)(C)C)c(F)c2)c1
[IV] CC(C)Cc1ccc(S(=O)(=O)Nc2ncccn2)c(-c2ccc(Cn3ccnc3C(C)(C)C)c(F)c2)c1
Sort key: Ki. Order: high to low. Scope: items listed above. Put the labels in the requested order and write them down. III, IV, II, I

[A] Cc1nccn1Cc1ccc(-c2cc(CC(C)C)ccc2S(=O)(=O)Nc2ncccn2)cc1F
[B] CC(C)Cc1ccc(S(=O)(=O)Nc2ncc(C#N)cn2)c(-c2ccc(Cn3ccnc3C(C)(C)C)c(F)c2)c1
[C] Cc1nccn1Cc1ccc(-c2cc(CC(C)C)sc2S(=O)(=O)Nc2ncccn2)cc1
Task for the reader: rank each entry by its Ki, from the minimum upward. Put the labels in the requested order and write them down. A, C, B

[a] CC(C)Cc1cc(-c2ccc(Cn3ccnc3C3CC3)cc2)c(S(=O)(=O)Nc2ncccn2)s1
[b] CC(C)Cc1ccc(S(=O)(=O)Nc2ncc(F)cn2)c(-c2ccc(Cn3ccnc3C(C)(C)C)c(F)c2)c1
So which one has the bigger Ki here, a or b ? Your choice should be expressed through its label. b

[a] CC(C)Cc1ccc(S(=O)(=O)Nc2ncc(Br)cn2)c(-c2ccc(Cn3ccnc3C(C)(C)C)c(F)c2)c1
[b] Cc1nc(NS(=O)(=O)c2ccc(CC(C)C)cc2-c2ccc(Cn3ccnc3C(C)(C)C)c(F)c2)oc1C
Field: lower Ki | Options: a / b Your choice should be expressed through its label. b
(b: 0.72 nM, a: 1.54 nM)

* * *

Assay: Metabolic stability in pooled human liver microsomes
Type: in vitro ADME
Conditions: human, pooled human liver microsomes, pooled human liver microsomes 0.5 mg/mL, 1 μM test compound, 37° C., with 1 mM NADPH; * rows = mean of two runs; read-out: T1/2, + NaDPH
readout name: half-life at 1 μM (min)

compound="COc1cc(NS(=O)(=O)c2ccc(CC(C)C)cc2-c2ccc(Cn3ccnc3C(C)(C)C)c(F)c2)nc(OC)n1 [Example 35]" readout_name="half-life at 1 μM" experimental_result=8
compound="CC(C)Cc1ccc(S(=O)(=O)Nc2nccs2)c(-c2ccc(Cn3ccnc3C(C)(C)C)c(F)c2)c1 [Example 8]" readout_name="half-life at 1 μM" experimental_result=34
compound="CC(C)Cc1ccc(S(=O)(=O)Nc2ccsn2)c(-c2ccc(Cn3ccnc3C(C)(C)C)cc2)c1 [Example 33]" readout_name="half-life at 1 μM" experimental_result=12
compound="COc1ncncc1NS(=O)(=O)c1ccc(CC(C)C)cc1-c1ccc(Cn2ccnc2C(C)(C)C)cc1 [Example 18]" readout_name="half-life at 1 μM" experimental_result=7
compound="Cc1nc(NS(=O)(=O)c2ccc(CC(C)C)cc2-c2ccc(Cn3ccnc3C(C)(C)C)cc2)oc1C [Example 13]" readout_name="half-life at 1 μM" experimental_result=34

[a] Cc1nc(NS(=O)(=O)c2ccc(CC(C)C)cc2-c2ccc(Cn3ccnc3C(C)(C)C)c(F)c2)oc1C [Example 24]
[b] COc1ncnc(OC)c1NS(=O)(=O)c1ccc(CC(C)C)cc1-c1ccc(Cn2ccnc2C(C)(C)C)c(F)c1 [Example 25]
[c] COc1cc(NS(=O)(=O)c2ccc(CC(C)C)cc2-c2ccc(Cn3ccnc3C(C)(C)C)cc2)nc(OC)n1 [Example 34]
Task for the reader: rank each entry by its half-life at 1 μM, from the minimum upward. Put the labels in the requested order and write them down. b, c, a
